# System: C. krusei
# test protocol: Antifungal Activity Assay (broth microtiter MIC), C. krusei
# Assay type: cell-based, Candida krusei
# condition description: Pichia kudriavzevii, ATCC6258, 48 h, Table 3b (additional results); ATCC 6258; 3 replicates; MIC recorded at 48 h; read-out: MIC, C. krusei ATCC 6258
test readout: MIC

{"molecule": "COc1ccc(F)cc1[C@H](Cn1c(=O)n(C(C)(C)C(=O)NC(C)C)c(=O)c2c(C)c(-n3nccn3)sc21)OCCC#N", "MIC": "0.25 to 1 µg/mL"}
{"molecule": "COCCO[C@@H](Cn1c(=O)n(C(C)(C)C(=O)OC(C)C)c(=O)c2c(C)c(-n3nccn3)sc21)c1cc(F)ccc1OC", "MIC": "2.01 to 4 µg/mL"}
{"molecule": "COc1ccc(F)cc1[C@H](Cn1c(=O)n(C(C)(C)C(=O)N2CCCC2)c(=O)c2c(C)c(-n3nccn3)sc21)OCC(O)C(F)(F)F (stereo partly drawn)", "MIC": "2.01 to 4 µg/mL"}
{"molecule": "COc1ccc(F)cc1[C@H](Cn1c(=O)n(C(C)(C)C(N)=O)c(=O)c2c(C)c(-n3nccn3)sc21)OC[C@@H](C)C#N", "MIC": "2.01 to 4 µg/mL"}

State recorded MIC for all listed molecules.
1. COc1ccc(F)cc1[C@@H](O)Cn1c(=O)n([C@H](C)C(=O)N(C)C(C)C)c(=O)c2c(C)c(-n3nccn3)sc21
2. CCc1ccc(F)cc1[C@H](Cn1c(=O)n(C(C)(C)C(=O)NC(C)C)c(=O)c2c(C)c(-n3nccn3)sc21)OCCOC
3. COc1ccc(F)cc1[C@H](Cn1c(=O)n([C@@H](C)C(=O)N(C)C(C)C)c(=O)c2c(C)c(-n3nccn3)sc21)O[C@H]1CC[C@@H](O)CC1
4. COc1ccc(F)cc1[C@@H](O)Cn1c(=O)n(C(C)(C)C(N)=O)c(=O)c2c(C)c(-n3nccn3)sc21
5. COc1ccc(F)cc1[C@H](Cn1c(=O)n(C(C)(C)C(=O)NC(C)C)c(=O)c2c(C)c(-n3nccn3)sc21)OC(=O)CO
6. COc1ccc(F)cc1[C@H](Cn1c(=O)n(C(C)(C)C(=O)NC2CCC2)c(=O)c2c(C)c(-n3nccn3)sc21)OCCC(C)=O
7. COc1ccc(F)cc1[C@H](Cn1c(=O)n(C(C)(C)C(=O)N2CCCC2)c(=O)c2c(C)c(-n3nccn3)sc21)OC[C@H](C)O

Result:
1: 2.01 to 4 µg/mL; 2: > 4.01 µg/mL; 3: 1.01 to 2 µg/mL; 4: 2.01 to 4 µg/mL; 5: 0.06 to 0.249 µg/mL; 6: 0.25 to 1 µg/mL; 7: 2.01 to 4 µg/mL

Task: Query (molecule): COc1ccc(F)cc1[C@H](Cn1c(=O)n(C(C)(C)C(N)=O)c(=O)c2c(C)c(-n3nccn3)sc21)OCC(C)C ; field requested: MIC
Result: 1.01 to 2 µg/mL
